System: HCT-15 colon
Experiment: NCI-60 one-dose screen, 48 h
Conditions: 10 µM unless noted
This is part of a sample that, as a whole, favours compounds with a hit. Of some 83,000 tested, about 20% had one in any assay. Active and inactive are the calls of the source. How the source made its calls: active means growth percent below 10; inactive means the rest.
Hello, when you answer, please use one of the following outcomes: true (1) for active, false (0) for inactive

Here's what some known entries look like.
Dear all, I need the recorded test outcome for Cc1ccc(S(=O)(=O)F)cc1C(=O)O , thank you.
false (0)

Recorded test call requested for Nc1cc2nc3ccccc3nc2cc1N
false (0)

Note: attention shifts to another entry.
Can you look up the reported call for CCOC(=O)N[C@H]1CCc2c(Br)c(OC)c(OC)c(OC)c2-c2ccc(SC)c(=O)cc21 for me?
true (1)

---

So I've got a bunch of compounds here, and I need their growth values.
Test system: HCT-15 colon
Assay: NCI-60 one-dose screen, 48 h (100 = growth as untreated, 0 = no growth, -100 = all killed)
Details: 10 µM unless noted
This is part of a sample that, as a whole, favours compounds with a hit. Of some 83,000 tested, about 20% had one in any assay. Active and inactive are the calls of the source. How the source made its calls: active means growth percent below 10; inactive means the rest.

Examples with their reported growth follow.
Tell me the measured growth of N#Cc1c(Br)n(C2OC(CO)C(O)C2O)c2ncnc(N)c12 (configuration not stated) , please.
43.9% (inactive)

# lookup: growth of CC[C@]12C=CCN3CC[C@@]4(c5ccc(OC)cc5N(C)[C@H]4[C@@](O)(C(=O)OC)[C@@H]1OC(=O)CCCC[P+](c1ccccc1)(c1ccccc1)c1ccccc1)[C@@H]32
99.3% (inactive)

I have this compound here, CC(=O)O[C@H](C[C@H](C(C)C)N(C)C(=O)[C@@H](NC(=O)[C@H]1CCCCN1C)C(C)C)c1nc(C(=O)N[C@@H](Cc2ccccc2)C[C@H](C)C(=O)O)c(C)s1 , and I need its recorded growth.
16.5% (inactive)

Batch request: growth for each of the following compounds.
1. O=[N+]([O-])CC(c1ccccc1Cl)c1c(-c2ccccc2)[nH]c2ccccc12 (configuration not stated)
2. Nc1ccc2c(c1)Cc1cc(Br)ccc1-2
3. COc1ccc(/C=C\c2cc(OC)c(OC)c(OC)c2)cc1NC(=O)/C=C/c1ccc(OC)c(OC)c1
4. COc1cc2ncnc(Nc3ccc(F)c(Cl)c3)c2cc1OCC(=O)N1CCN(C)CC1

["22.8% (inactive)", "101% (inactive)", "29.7% (inactive)", "93.4% (inactive)"]

---

Test system: HT29 colon
Assay: NCI-60 one-dose screen, 48 h
Conditions: 10 µM unless noted
The panel holds about 83,000 compounds, 20% with a hit somewhere; the sample as a whole holds those more often. Activity calls are given as the source filed them. The calls were made as follows: active = growth percent below 10; inactive = the rest.
Outcome field: choose from 1.0 (active), 0.0 (inactive)

Recorded results for 2 molecules are shown here.
Dear colleague, could you share the recorded outcome for CC(=O)OC[C@]1(C)C=C2C(=O)[C@](C)(O)C3(CC3)C(C)=C2[C@H]1O when you have a moment?
1.0

I would be grateful if you could indicate the recorded call for COc1cc2c(cc1OCCCn1c(-c3ccccn3)nc3ccccc31)N=C[C@@H]1CCCN1C2=O .
1.0

---
Lab log entry: Clc1cccc(Cl)c1Cl — outcome as called in the assay?
0.0

What did the test return for O=C1C(Cl)=C(N2CCOCC2)C(=O)c2ccccc21 ?
0.0

Recorded call for C/C=C(\C)C(=O)O[C@@H]1C(O)[C@H]2OC(COC(=O)CCC(=O)CCCCCC[C@H](CCCCC)O[C@@H]3OC(C)[C@H](OC(C)=O)C(O)[C@H]3O2)[C@H]1OC(=O)/C=C/c1ccccc1 (stereo partly specified) ?
1.0

State the result this test recorded for CC1=C(CNO)C2=C(C)C3(CC3)[C@@](C)(O)C(=O)C2=C1 .
0.0

Could you kindly confirm the outcome this assay logged for CC1(C)C(C(=O)c2cn(CCCCF)c3ccccc23)C1(C)C ?
0.0

Each molecule tested received a call. Report the one for Clc1ccc(CSC(Cn2ccnc2)c2ccc(Cl)cc2Cl)cc1 (stereo unspecified) .
0.0

Hi, do you know how CC1=C(CCCNS(C)(=O)=O)C2=C(C)C3(CC3)[C@@](C)(O)C(=O)C2=C1 came out in this test?
1.0

Test call for this molecule, please: COC1CC2c3ccccc3C1C(C)=[N+]2C (stereo unspecified)
0.0

GET /call?item= C=CCn1cc(C=C2C(=O)N(C)C(=O)N(C)C2=O)c2ccccc21 returns the recorded outcome of this test.
0.0

Tell me the assay call for CCC1CN1CCCCN1CC1CC (stereo unspecified) please.
0.0

What call does the record list for O=P1(NCCCl)OCCCN1CCCl (stereo unspecified) ?
0.0

Lab log entry: COC(=O)[C@H](C[C@H](Cc1ccccc1)NC(=O)c1csc([C@@H](C[C@H](C(C)C)N(C)C(=O)[C@@H](NC(=O)[C@H]2CCCCN2C)C(C)C)OC(C)=O)n1)NC(=O)OCc1ccccc1 — outcome as called in the assay?
1.0

Please indicate how the test categorized COC(=O)[C@@H](C)C[C@H](Cc1ccccc1)NC(=O)c1csc(CC[C@H](C(C)C)N(C)C(=O)[C@@H](NC(=O)[C@H]2CCCCN2C)C(C)C)n1 .
1.0

# fetch the recorded call for CCc1ccccc1[C@@H]1C[C@]2(C)CCO[C@@H]2OO1 here
0.0

---

For each record, write down the corresponding growth.
Test system: HT29 colon
Assay: NCI-60 one-dose screen, 48 h (100 = growth as untreated, 0 = no growth, -100 = all killed)
Conditions: 10 µM unless noted
The panel holds about 83,000 compounds, 20% with a hit somewhere; the sample as a whole holds those more often.
Give bare numbers, in %.

Looking for the measured growth of CC(C)OC(=O)[C@H](C)NP(=O)(Oc1ccccc1)C1CCCN(O)C1=O (some centres undefined) , can you help?
91.7

Consider the compound C=CCc1cc2c(cc1OCC)OCO2 and give its measured growth.
87.7

Form field: reported growth of CNC(=O)Oc1ccc(C(C)(C)C)cc1OC(=O)NC
88.8

Data request, read-out growth, for Fc1c[c-]c(-c2ccccn2)c(F)c1.[CH3-].[Pt+2].c1ccc([PH+](c2ccccc2)c2ccccn2)cc1
-13

Give growth for all compounds that follow.
1. CCCCCCCC(=O)OCC(=O)[C@]1(O)Cc2c(O)c3c(c(O)c2[C@@H](OC2CC(N)C(O)C(C)O2)C1)C(=O)c1c(OC)cccc1C3=O (some centres undefined)
2. O=C(O)C(Cl)(Cl)C(F)(F)F
3. COc1cccc2c1c(C(=O)C(=O)Nc1cc(C)no1)cn2Cc1ccc(F)cc1
4. COC1=CC(=O)O[C@@H](/C=C/c2ccc3c(c2)OCO3)C1
5. CN[C@@]1(c2ccccc2Cl)CCCC[C@@H]1NCC1CCCO1 (some centres undefined)
6. CC1=C2[C@@H](CC1)[C@]1(C)O[C@@](C(C)C)(C[C@H]1O)[C@H]2OC(=O)C1CC1c1ccccc1 (some centres undefined)
7. N/C(=N/N=C/c1ccncc1)N[N+](=O)[O-]

1. -63.5
2. 103
3. 24.8
4. 111
5. 101
6. 103
7. 101

---

Tested on: NCI-H226 lung
Experiment: NCI-60 one-dose screen, 48 h
Conditions: 10 µM unless noted
The panel holds about 83,000 compounds, 20% with a hit somewhere; the sample as a whole holds those more often. Active and inactive are the calls of the source. The calls were made as follows: active = growth percent below 10; inactive = the rest.
Choose one outcome from this list and give only that: Yes = active, No = inactive

Example results:
Recorded test outcome, item c1ccc(COc2ccc3[nH]cc(CCN(Cc4ccccc4)Cc4ccccc4)c3c2)cc1
No

State the result this test recorded for N/C(=N/N=C/c1ccncc1)N[N+](=O)[O-] .
No

Each compound tested received a call. Report the one for CC(=O)OC1C(OC/C2=C/C3[C@@H](C(C)C)CC=C(C)[C@@H]3CC(OC(=O)/C=C/c3cn(C)cn3)[C@]3(C)C=C[C@@]2(O)O3)OCC(O)C1O (stereo partly specified) .
No

Name the outcome recorded for CC(=O)OCc1cc[c]([Hg][Cl])o1 in the assay.
No

Hey, what did the test say about COc1ccc(/C=C\c2cc(OC)c(OC)c(OC)c2)cc1NS(=O)(=O)c1ccc(Cl)cc1 ?
No

***
Recorded test call requested for Cc1cc(N(CCCl)CCCl)ccc1C=Nc1ccccc1-c1ccccc1
Yes

Outcome? COc1cc([C@@H]2c3cc4c(cc3[C@H](OC(C)=O)[C@H]3COC(=O)[C@@H]23)OCO4)cc(OC)c1OC
No

Field: outcome | Entry: O=C1C(N2CC2)=C(N2CC2)C(=O)C(N2CC2)=C1N1CC1
Yes

Name the outcome recorded for O=C1OCC2=C1C(c1ccccc1)c1cc3c(cc1N2)OCO3 (stereo unspecified) in the assay.
Yes

Answer briefly: the call reported for O=C1CN=C(c2ccc(Cl)cc2)c2sccc2N1 in this assay.
No

Hi, do you know how COC(=O)CC[C@H](Cc1ccccc1)NC(=O)c1csc([C@@H](C[C@H](C(C)C)N(C)C(=O)[C@@H](NC(=O)[C@H]2CCCCN2C)C(C)C)OC(C)=O)n1 came out in this test?
No
